Can you tell me MRT for the items I'm about to list?
# Test details: Mean residence time in Sprague-Dawley rat
# Format: ADME, organism-based
# Test context: in vivo
Numeric only. Scale: h

Query: Look at this molecule and give its reported MRT. NS(=O)(=O)c1ccc(CNc2nc(NCC(F)(F)F)c3nc(-c4ccc(F)nc4)ccc3n2)cc1
Response: 4.9

Query: Moving on to the next molecule: NS(=O)(=O)c1cc(Cl)cc(CNc2nc(NC3(C(F)(F)F)CC3)c3nc(-c4ccc(F)cc4)ccc3n2)c1
Response: 11

Query: Moving on to the next molecule: CC1(Oc2nc(NCc3ccc(-n4cncn4)cc3)nc3ccc(-c4ccc(OC5CC5)nc4)nc23)CC1
Response: 1.9

Query: Moving on to the next molecule: COc1ccc(-c2ccc3nc(NCc4ccc(S(N)(=O)=O)cc4)nc(NCC(F)(F)F)c3n2)cc1S(C)(=O)=O
Response: 0.8

Query: Moving on to the next molecule: C[C@@H](Nc1nc(NC2(C(F)(F)F)CC2)c2nc(-c3cccc(S(C)(=O)=O)c3)ccc2n1)c1ccc(-n2cncn2)cc1
Response: 3.5

Query: Moving on to the next molecule: N#CC1(Nc2nc(NCc3ccc(S(N)(=O)=O)cc3)nc3ccc(-c4ccc(F)nc4)nc23)CC1
Response: 0.9

Query: Moving on to the next molecule: COc1ccc(-c2ccc3nc(N[C@H](C)c4ccc(-n5cncn5)cc4)nc(NCC(F)(F)F)c3n2)cc1S(C)(=O)=O
Response: 2.6

Query: Moving on to the next molecule: FC(F)(F)CNc1nc(NCc2ccc(-n3cncn3)cc2)nc2ccc(-c3ccc(OC4CC4)nc3)nc12
Response: 5.3

Query: Moving on to the next molecule: NS(=O)(=O)c1ccc(CNc2nc(NCC(F)(F)F)c3nc(-c4ccc(F)cc4)ccc3n2)cc1
Response: 6.9

Query: Moving on to the next molecule: COc1ccc(-c2ccc3nc(NCc4ccc(S(N)(=O)=O)cc4)nc(NC4(C#N)CC4)c3n2)cn1
Response: 0.4
